Test system: K24384-001-R-PDC complex spheroids, viability
protocol_description: Anticancer human tumor K24384-001-R-PDC patient-derived pancreatic adenocarcinoma cell line growth inhibition [GQUAD]
stated_conditions: second compound 3.16 µM; first compound 0.00316 µM; active compounds read low
Y if viability, T/C is below 90%. N if not; exact matches included in N.

Check out these entries, answers already filled in.
1. Cc1[nH]c2ccccc2c1CCNCc1ccc(/C=C/C(=O)NO)cc1 + CN(C)c1ccc(Nc2c3ccc(NC(=O)CCN4CCCC4)cc3nc3cc(NC(=O)CCN4CCCC4)ccc23)cc1    N
2. CCc1c2c(nc3ccc(O)cc13)-c1cc3c(c(=O)n1C2)COC(=O)[C@]3(O)CC + CN(C)c1ccc(Nc2c3ccc(NC(=O)CCN4CCCC4)cc3nc3cc(NC(=O)CCN4CCCC4)ccc23)cc1    Y

-- ask Quick check: does CCc1c2c(nc3ccc(O)cc13)-c1cc3c(c(=O)n1C2)COC(=O)[C@]3(O)CC + Cc1cnc(CNC(=O)c2c(=O)c3ccc(N4CCCN(C)CC4)nc3n3c2sc2ccccc23)cn1 have viability, T/C under 90%?
-- reply Y

-- ask Further, for Cn1ncnc1[C@H]1c2n[nH]c(=O)c3cc(F)cc(c23)N[C@@H]1c1ccc(F)cc1 + CN(C)c1ccc(Nc2c3ccc(NC(=O)CCN4CCCC4)cc3nc3cc(NC(=O)CCN4CCCC4)ccc23)cc1 ?
-- reply Y

-- ask Further, for CC[C@@]1(O)C(=O)OCc2c1cc1n(c2=O)Cc2cc3c(CN(C)C)c(O)ccc3nc2-1 + Cc1[nH]c2ccc(F)cc2c1-c1nc2c3cccnc3c3ncccc3c2[nH]1 ?
-- reply Y

----------
Test system: K24384-001-R-PDC complex spheroids, viability
protocol_description: Anticancer human tumor K24384-001-R-PDC cell line growth inhibition [GQUAD];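 also: spheroids exposed to compounds for seven days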
stated_conditions: second compound 0.1 µM; first compound 0.00999 µM; active compounds read low
From the text: DNA G-quadruplex Stabilizer Agents in Combinations in Complex Spheroids A high-throughput screen of multi-cell type tumor spheroids was designed to identify active combinations of DNA G-quadruplex stabilizer agents and targeted small molecules. […] Compounds. […] If the clinical Cmax for an agent had not been determined, the highest concentration tested was 10 microM. […]
criterion met if viability, T/C is below 50%. criterion not met if not; exact matches included in criterion not met.

Check out these entries, answers already filled in.
1) CC[C@@]1(O)C(=O)OCc2c1cc1n(c2=O)Cc2cc3c(CN(C)C)c(O)ccc3nc2-1 + Cc1[nH]c2ccc(F)cc2c1-c1nc2c3cccnc3c3ncccc3c2[nH]1    criterion not met
2) Cc1[nH]c2ccccc2c1CCNCc1ccc(/C=C/C(=O)NO)cc1 + CN(C)c1ccc(Nc2c3ccc(NC(=O)CCN4CCCC4)cc3nc3cc(NC(=O)CCN4CCCC4)ccc23)cc1    criterion not met
3) Cc1[nH]c2ccccc2c1CCNCc1ccc(/C=C/C(=O)NO)cc1 + Cc1cnc(CNC(=O)c2c(=O)c3ccc(N4CCCN(C)CC4)nc3n3c2sc2ccccc23)cn1    criterion not met
4) CCc1c2c(nc3ccc(O)cc13)-c1cc3c(c(=O)n1C2)COC(=O)[C@]3(O)CC + Cc1cnc(CNC(=O)c2c(=O)c3ccc(N4CCCN(C)CC4)nc3n3c2sc2ccccc23)cn1    criterion met

Now for a further molecule.
-- ask Quick check: does CC[C@@]1(O)C(=O)OCc2c1cc1n(c2=O)Cc2cc3c(CN(C)C)c(O)ccc3nc2-1 + Cc1cnc(CNC(=O)c2c(=O)c3ccc(N4CCCN(C)CC4)nc3n3c2sc2ccccc23)cn1 have viability, T/C under 50%?
-- reply criterion not met
